# TEST SYSTEM: pDNA-PK ser2056 induction in HCT116 spheroids (Homo sapiens, UniProt P78527)
# Construct: endogenous in cells; host or cells: HCT116 multicellular tumour spheroids
# TEST: Multicellular tumour spheroid + radiation, pDNA-PK inhibition, HCT116
# Type: cell-based
# CONDITION INFO: Example 7; spheroid, cell line HCT115 [sic]; 20 Gy; 20% O2; read-out: EC50 (pDNA-PK inhibition, immunohistochemical endpoint)
Assign EC50 to each entry below.

Asked: Consider the molecule shown here: "Fc1cnc(N[C@H]2CC[C@@H](Oc3nc(N4CCOCC4)cc4ncccc34)CC2)nc1" What is its recorded EC50?
Given back: 1 to 10 µM

Asked: Consider the molecule shown here: "O=C(N[C@H]1CC[C@@H](Oc2nc(N3CCOCC3)cc3ncccc23)CC1)c1ccc(C(F)(F)F)o1" What is its recorded EC50?
Given back: 1 to 10 µM

Asked: Consider the molecule shown here: "FC(F)Oc1cnc(N[C@H]2CC[C@@H](Oc3nc(N4CCOCC4)cc4ncccc34)CC2)nc1" What is its recorded EC50?
Given back: 1 to 10 µM

Asked: Consider the molecule shown here: "COc1ccc(N[C@H]2CC[C@@H](Oc3nc(N4CCOCC4)cc4ncccc34)CC2)nn1" What is its recorded EC50?
Given back: 1 to 10 µM

Asked: Consider the molecule shown here: "CCCS(=O)(=O)Nc1cnc2cc(N3CCOCC3)nc(O[C@H]3CC[C@@H](Nc4ncccn4)CC3)c2c1" What is its recorded EC50?
Given back: 10 to 100 µM

Asked: Consider the molecule shown here: Clc1nc(N[C@H]2CC[C@@H](Oc3nc(N4CCOCC4)cc4ncccc34)CC2)c2occc2n1 [Compound 80b] What is its recorded EC50?
Given back: 1 to 10 µM

Asked: Consider the molecule shown here: c1cnc2cc(N3CCOCC3)nc(O[C@H]3CC[C@@H](Nc4ncnc5ccoc45)CC3)c2c1 [Compound 80a] What is its recorded EC50?
Given back: 0.01 to 0.5 µM

Just for reference, patent US20240246960A1 is where these values come from.
